# target system: mouse DLL3 on CHO-K1-mDLL3 cells (mouse) (UniProt O88516)
# Sequence (O88516 other isoform, or with tags, fused parts or gaps limits assumed): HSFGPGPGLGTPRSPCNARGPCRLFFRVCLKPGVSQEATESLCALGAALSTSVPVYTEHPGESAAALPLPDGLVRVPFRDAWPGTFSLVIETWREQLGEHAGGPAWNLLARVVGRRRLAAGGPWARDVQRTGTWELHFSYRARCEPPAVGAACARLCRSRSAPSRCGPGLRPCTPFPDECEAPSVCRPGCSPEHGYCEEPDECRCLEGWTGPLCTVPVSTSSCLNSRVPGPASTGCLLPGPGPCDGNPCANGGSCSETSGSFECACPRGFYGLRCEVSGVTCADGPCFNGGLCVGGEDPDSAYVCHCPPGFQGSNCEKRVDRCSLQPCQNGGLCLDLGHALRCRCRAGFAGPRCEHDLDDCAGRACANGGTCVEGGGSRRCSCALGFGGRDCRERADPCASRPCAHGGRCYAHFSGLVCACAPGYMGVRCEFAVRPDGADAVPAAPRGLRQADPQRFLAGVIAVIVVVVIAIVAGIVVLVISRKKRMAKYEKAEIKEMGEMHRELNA
# experimental protocol: FACS, CHO-K1-mDLL3 cells, 0.8 nM antibody
experimental endpoint: MFI (MFI)
The reply should contain only the number, in MFI.

{"columns": ["binder", "MFI, MFI"],
 "data": [
  ["Hab015VL5VH6a-hFc (scFv, part only; not given: scFv linker and human IgG1 Fc, V domains shown, not shown: another chain or arm of the molecule; a dimerising Fc or GST; small tags and cut ends) VL: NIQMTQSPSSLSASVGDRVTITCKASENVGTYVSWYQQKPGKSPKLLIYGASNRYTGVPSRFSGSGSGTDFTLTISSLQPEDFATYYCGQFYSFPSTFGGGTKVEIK VH: EVQLVESGGGLVKPGGSLRLSCAASGITFSNFWMNWVRQAPEKGLEWVGQIRLKSDDYATHYAESVKGRFTISREDSKNTVYLQMNSLKTEDTAVYYCTTGYYFDYWGQGTTVTVSS", 870],
  ["Hab014VL1VH2-hFc (scFv, part only; not given: VL-VH linker and human IgG1 Fc, V domains shown, not shown: another chain or arm of the molecule; a dimerising Fc or GST; small tags and cut ends) VL: DIQMTQSPSSLSASVGDRVTITCKASEDIYNRLAWYQQKPGKVPKLLISGATSLETGVPSRFSGSGSGTDFTLTISSLQPEDVATYYCQQYWSLPWTFGGGTKVEIK VH: EVQLVQSGAEVKKPGASVKVSCKASGYTFTDYYMNWVRQAPGQRLEWMGDINPNHGDTGYNQKFTGRVTLTVDKSASTAYMELSSLRSEDTAVYYCARNFFYYGTTYGWYFDVWGQGTTVTVSS", 268],
  ["Hab015VL4VH5a-hFc (scFv, part only; not given: VL-VH linker and human IgG1 Fc, V domains shown, not shown: another chain or arm of the molecule; a dimerising Fc or GST; small tags and cut ends) VL: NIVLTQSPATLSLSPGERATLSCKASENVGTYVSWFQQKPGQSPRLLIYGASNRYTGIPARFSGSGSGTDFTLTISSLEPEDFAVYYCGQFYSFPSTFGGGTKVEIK VH: EVQLVESGGGLVKPGGSLRLSCVASGITFSNFWMNWVRQAPGKGLEWVGQIRLKSDDYATHYAESVKGRFTISREDSKNTVYLQMNSLKTEDTAVYYCTTGYYFDYWGQGTTVTVSS", 875],
  ["Hab006VL4VH1-hFc (scFv, part only; not given: scFv linker and human IgG1 Fc, V domains shown, not shown: another chain or arm of the molecule; a dimerising Fc or GST; small tags and cut ends) VL: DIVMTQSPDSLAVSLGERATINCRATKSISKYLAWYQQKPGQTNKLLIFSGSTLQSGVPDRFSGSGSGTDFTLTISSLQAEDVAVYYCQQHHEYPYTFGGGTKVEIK VH: EVQLVQSGAEVKKPGASVKVSCKASGYTFTSYWMHWVRQAPGQRLEWMGVIDPSDSLANYNQEFKGRVTITVDTSASTAYMELSSLRSEDTAVYYCARDSTVVAPMDYWGQGTTVTVSS", 404],
  ["Hab006VL1VH4-hFc (scFv, part only; not given: VL-VH linker and human IgG1 Fc, V domains shown, not shown: another chain or arm of the molecule; a dimerising Fc or GST; small tags and cut ends) VL: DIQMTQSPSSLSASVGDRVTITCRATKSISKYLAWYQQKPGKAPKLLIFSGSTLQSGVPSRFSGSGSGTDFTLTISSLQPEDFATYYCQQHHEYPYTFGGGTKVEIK VH: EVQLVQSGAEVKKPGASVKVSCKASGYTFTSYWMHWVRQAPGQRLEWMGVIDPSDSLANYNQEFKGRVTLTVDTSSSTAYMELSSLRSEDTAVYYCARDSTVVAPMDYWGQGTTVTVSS", 529],
  ["Hab009VL1aVH1-hFc (scFv, part only; not given: scFv linker and human IgG1 Fc, V domains shown, not shown: another chain or arm of the molecule; a dimerising Fc or GST; small tags and cut ends) VL: DIVMTQSPLSLPVTPGEPASISCRASQTISDYLHWYLQKPGQSPQLLIKYASQSISGVPDRFSGSGSGSDFTLKISRVEAEDVGVYYCQQGHSFPLTFGQGTKLEIK VH: EVQLVQSGAEVKKPGASVKVSCKASGYTFTSYWMHWVRQAPGQRLEWMGTIYPGNSDTRYNQKFKDRVTITADTSASTAYMELSSLRSEDTAVYYCTRSYDYGDLDYWGQGTTVTVSS", 327],
  ["Hab014VL3VH1-hFc (scFv, part only; not given: VL-VH linker and human IgG1 Fc, V domains shown, not shown: another chain or arm of the molecule; a dimerising Fc or GST; small tags and cut ends) VL: DIVMTQSPDSLAVSLGERATINCKASEDIYNRLAWYQQKPGQTPKLLISGATSLETGVPDRFSGSGSGKDFTLTISSLQAEDVAVYYCQQYWSLPWTFGGGTKVEIK VH: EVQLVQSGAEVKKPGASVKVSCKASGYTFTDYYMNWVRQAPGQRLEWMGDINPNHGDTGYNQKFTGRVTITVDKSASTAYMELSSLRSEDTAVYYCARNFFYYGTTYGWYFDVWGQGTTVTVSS", 253],
  ["Hab015VL5VH1b-hFc (scFv, part only; not given: VL-VH linker and human IgG1 Fc, V domains shown, not shown: another chain or arm of the molecule; a dimerising Fc or GST; small tags and cut ends) VL: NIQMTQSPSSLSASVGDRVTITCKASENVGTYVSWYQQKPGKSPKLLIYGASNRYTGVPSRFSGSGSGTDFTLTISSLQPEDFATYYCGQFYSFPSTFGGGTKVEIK VH: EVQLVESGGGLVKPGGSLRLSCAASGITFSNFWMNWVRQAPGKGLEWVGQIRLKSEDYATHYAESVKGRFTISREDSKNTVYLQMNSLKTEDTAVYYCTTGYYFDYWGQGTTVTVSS", 884],
  ["Hab015VL4VH1b-hFc (scFv, part only; not given: VL-VH linker and human IgG1 Fc, V domains shown, not shown: another chain or arm of the molecule; a dimerising Fc or GST; small tags and cut ends) VL: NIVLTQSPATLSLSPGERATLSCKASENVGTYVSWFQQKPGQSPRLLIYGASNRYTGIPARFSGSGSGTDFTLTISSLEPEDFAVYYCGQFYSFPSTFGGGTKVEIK VH: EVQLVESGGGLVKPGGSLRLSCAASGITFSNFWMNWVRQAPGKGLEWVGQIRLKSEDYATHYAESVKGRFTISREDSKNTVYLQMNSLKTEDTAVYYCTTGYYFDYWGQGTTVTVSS", 813]
]}

As a next step, examine the binder that follows.
Record request: MFI value, item Hab015VL4VH6a-hFc (scFv, part only; not given: scFv linker and human IgG1 Fc, V domains shown, not shown: another chain or arm of the molecule; a dimerising Fc or GST; small tags and cut ends) VL: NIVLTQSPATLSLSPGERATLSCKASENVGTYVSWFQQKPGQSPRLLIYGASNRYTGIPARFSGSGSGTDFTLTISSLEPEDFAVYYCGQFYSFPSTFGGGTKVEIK VH: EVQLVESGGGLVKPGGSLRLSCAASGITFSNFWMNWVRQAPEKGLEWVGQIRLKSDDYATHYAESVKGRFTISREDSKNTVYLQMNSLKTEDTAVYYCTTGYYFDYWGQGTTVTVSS
884

Origin of values: patent EP4786492A1
